Ref: patent US8273752B2

- study-target: GSK3β (Homo sapiens, UniProt P49841)
- Construct: purchased Upstate xy
- Sequence (P49841 whole entry, species assumed): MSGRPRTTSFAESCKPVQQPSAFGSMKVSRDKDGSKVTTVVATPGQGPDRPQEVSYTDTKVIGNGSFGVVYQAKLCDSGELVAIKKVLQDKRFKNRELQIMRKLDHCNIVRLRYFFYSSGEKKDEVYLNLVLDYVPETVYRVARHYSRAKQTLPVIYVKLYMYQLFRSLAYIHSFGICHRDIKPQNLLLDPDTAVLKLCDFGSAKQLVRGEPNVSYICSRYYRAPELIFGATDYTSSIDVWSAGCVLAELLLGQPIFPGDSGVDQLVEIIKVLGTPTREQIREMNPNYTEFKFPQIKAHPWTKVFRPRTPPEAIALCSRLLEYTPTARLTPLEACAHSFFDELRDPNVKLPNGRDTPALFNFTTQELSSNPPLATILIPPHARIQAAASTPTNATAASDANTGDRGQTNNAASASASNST
- assay-name: GSK3β biochemical in vitro assay (fluorescence, NADH-coupled)
- condition-notes: 5 nM GSK3β, 40 μM substrate GSM, 50 μM ATP, 30° C., 2 hours
Where a name gives a salt, the structure may show the parent alone.
recorded-metric: pIC50
pIC50 here: minus log base 10 of the concentration, concentration in moles per litre.

Exercise: // fetch GSK3β (Homo sapiens, UniProt P49841) pIC50 for `Nc1nc(NCCNc2nc(-c3ccc(Cl)cc3Cl)cc3nccn23)sc1C(=O)C(F)(F)F`
Key: 8.15

Exercise: Item: `Nc1nc(NCCNc2nc(-c3ccc(Cl)cc3Cl)cc3ncnn23)sc1C(=O)C(F)(F)F`
Key: 8.52

Exercise: Would you mind doing `CN1CCN(CCNC(=O)c2cn3c(NCCNc4ccc(C#N)cn4)nc(-c4ccc(Cl)cc4Cl)cc3n2)CC1` as well?
Key: 7.39

Exercise: Same again, this time with `Cc1cccc(-c2cc3nccn3c(NCCNc3ccc([N+](=O)[O-])c(N)n3)n2)c1`
Key: 7.62

Exercise: Try the compound `Nc1nc(NCCNc2nc(-c3ccc(Cl)cc3Cl)cc3nccn23)sc1C(=O)C1CC1`
Key: 8.22

Exercise: Lookup Nc1nc(NCCNc2nc(-c3ccc(Cl)cc3Cl)cc3nc(CN4CCOCC4)cn23)ccc1[N+](=O)[O-] [Example 81, trifluoroacetate]
Key: 8.10

Exercise: // repeat for `Nc1nc(NCCNc2nc(-c3ccc(F)c(Cl)c3)cc3nccn23)ccc1[N+](=O)[O-]` and report
Key: 7.09

Exercise: Please give the result for `N#Cc1ccc(NCCNc2nc(-c3ccc(C(F)(F)F)cc3)cc3ncnn23)nc1` too.
Key: 7.14

Exercise: Ok, now Nc1nc(NCCNc2nc(-c3ccc(Cl)cc3Cl)cc3nccn23)ccc1C(=O)C(F)(F)F [Example 149, hydrochloride]
Key: 8.00

Exercise: Now the compound `Cc1cn2c(NCCNc3ccc([N+](=O)[O-])c(N)n3)nc(-c3ccc(Cl)cc3Cl)cc2n1`
Key: 7.77

Exercise: And for `CC(=O)c1sc(NCCNc2nc(-c3ccc(Cl)cc3Cl)cc3nccn23)nc1N` ?
Key: 8.30

Exercise: Cool, now `CC(C)(C)c1ccc(-c2cc3nccn3c(NCCNc3ccc(C#N)cn3)n2)cc1`
Key: 6.75

Exercise: And then `N#Cc1sc(NCCNc2nc(-c3ccc(C(F)(F)F)cc3)cc3ncnn23)nc1N` , what is it?
Key: 7.57

Exercise: Try this compound next: `N#Cc1ccc(NCCNc2nc(-c3ccc(Cl)cc3Cl)cc3nccn23)nc1N`
Key: 7.92

Exercise: Please give the result for `Nc1nc(NCCNc2nc(-c3ccc(OC(F)(F)F)cc3)cc3nccn23)ccc1[N+](=O)[O-]` too.
Key: 6.83

Exercise: Now the same for CN(C)Cc1cn2c(NCCNc3ccc([N+](=O)[O-])c(N)n3)nc(-c3ccc(Cl)cc3Cl)cc2n1 [Example 147, trifluoroacetate]
Key: 7.62

* * *

Where a name gives a salt, the structure may show the parent alone.
Observed pIC50, system GSK3β (Homo sapiens).
pIC50 (log units): -log10 of the concentration in mol/L.

Exercise: May I ask what pIC50 has been recorded for `N#Cc1sc(NCCNc2nc(-c3ccc(Cl)cc3Cl)cc3nc(CN4CCOCC4)nn23)nc1N` ?
Key: 7.41

Exercise: Can you handle CC(=O)c1sc(NC2CCCN(c3nc(-c4ccc(Cl)cc4Cl)cc4nccn34)C2)nc1N (centres unmarked) [Example 128, trifluoroacetate] next?
Key: 8.52

Exercise: Note, next up: `CN1CCN(C(=O)c2cn3c(NCCNc4ccc(C#N)cn4)nc(-c4ccc(Cl)cc4Cl)cc3n2)CC1`
Key: 7.05

Exercise: Cool, now N#Cc1ccc(NC2CCCN(c3nc(-c4ccc(Cl)cc4Cl)cc4nccn34)C2)nc1 (single isomer, unassigned) [Ent. B 123, trifluoroacetate]
Key: 7.66

Exercise: Quick one: `Cc1cc(F)ccc1-c1cc2nccn2c(NCCNc2ccc([N+](=O)[O-])c(N)n2)n1`
Key: 7.64

Exercise: Now give it for `Nc1nc(NCCNc2nc(-c3ccccc3)cc3nccn23)ccc1[N+](=O)[O-]` too.
Key: 7.03

Exercise: # iterate: `COC(=O)c1ccc(NCCNc2nc(-c3ccc(Cl)cc3Cl)cc3ncnn23)nc1N`
Key: 7.21

Exercise: Would you kindly repeat that for N#Cc1ccc(NCCNc2nc(-c3ccc(Cl)cc3Cl)cc3nc(CN4CCOCC4)cn23)nc1 [Example 145, trifluoroacetate] ?
Key: 7.21

Exercise: How about `N#Cc1ccc(NCCNc2nc(-c3ccc(Cl)cc3Cl)cc3nccn23)nc1` ?
Key: 7.47

Exercise: Param item: `N#Cc1ccc(NCCNc2nc(-c3ccc(Cl)cc3Cl)cc3ncc(Br)n23)nc1`
Key: 7.85

Exercise: How about CC(=O)c1ccc(NCCNc2nc(-c3ccc(Cl)cc3Cl)cc3nccn23)nc1N [Example 150, hydrochloride] ?
Key: 7.96

Exercise: Would you mind doing `Nc1nc(NCCNc2nc(-c3ccc(Cl)cc3Cl)cc3nc(CN4CCOCC4)nn23)ccc1C(=O)C(F)(F)F` as well?
Key: 9.15

Exercise: Now give it for `CC(C)Cn1cc(-c2cc3nccn3c(NCCNc3ccc([N+](=O)[O-])c(N)n3)n2)cn1` too.
Key: 6.76

Exercise: Then `N#Cc1ccc(NCCNc2nc(-c3ccc(C(F)(F)F)cc3)cc3nc(C(=O)NC(CO)CO)cn23)nc1` ?
Key: 6.91
